# cytotoxicity annotations
Experiment: cytotoxicity in HPDE-C7 cells, cell-based, fluorescence, HTS (AID 430);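 note: cells exposed to compound for 48 hours before viability readout; 0% = vehicle and 100% = reference cytotoxic drug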
Conditions: HPDE-C7 pancreatic duct cells viability, at 10 µM, hits give high values
Among all 63,000 compounds or so, about 1,100 (1.7%) were called active. For the sample, actives were picked, then their nearest neighbours and some compounds at random. Measured potencies and affinities stand elsewhere.
Answer with a number only, understood to be in %.

Molecule: Cc1c(Cl)cccc1Nc1ccccc1C(=O)O
cytotoxicity [%]: -3.4
--
Molecule: N#Cc1c2c(c(=S)n(-c3ccccc3)c1N)CCCC2
cytotoxicity [%]: 1.6
--
Molecule: CCOC(=O)c1c(N)sn(-c2ccccc2)c1=S
cytotoxicity [%]: -2
--
Molecule: COc1ccccc1-c1cc(C(=O)NCc2ccc(Cl)cc2)no1
cytotoxicity [%]: -15.3

Query: cytotoxicity; subject: OC1CCCN(Cc2cccc3ccccc23)C1 (configuration not stated)
4.1

# repeat for `O=C(CSc1ccc2c(c1)OCCO2)NCCN1C(=O)CSC1=O`
3.6

# repeat for COc1ccc(C(CNC(=O)Cn2[nH]c(=O)c3ccccc3c2=O)N2CCCC2)cc1 (configuration not stated)
1.8

# repeat for `CC1CCN(S(=O)(=O)c2ccc(NC(=O)Cn3nnc(-c4ccccc4)n3)cc2)CC1`
3.7

# repeat for CC(=O)c1cccc(S(=O)(=O)NCC(c2ccco2)N2CCCCC2)c1 (configuration not stated)
1

# repeat for `c1ccc(CCc2nc(-c3ccccn3)no2)cc1`
6.2

# repeat for CN(C)c1ccc(CN2CCCC(O)C2)cc1 (configuration not stated)
0.6

# repeat for `CCCCCCc1cc2cc(-c3nnc(-c4ccccc4O)o3)c(=O)oc2cc1O`
62.7
